- TARGET: T1, huNav1.7α (human, UniProt Q15858 1-1988)
- T1 construct: HEK cells expressing the α subunit alone; also called HEKa; HEK huNav1.7α
- ASSAY COMMENT: binding FACS, HEKa cells
READOUT NAME: EC50 (nM)
Field format: number, assumed nM, no unit text.

Lookup: Assign EC50 to the following record: F010300990 (VHH, vs F0103275B05: S27P, I28V, S33R, S50Y, N53P, T101I) VHH: EVQLVESGGGLVQPGGSLRLSCAASGPVFNINRMAWYRRAPGKQRELVAYSTPGGSTNYADSVKGRFTISRDNAKRVYLQMNSLTPEDTAVYYCNALLQPSIYDISRIYWGQGTLVTVSS
Found: 4.3

Lookup: Consider the binder F010301459 (VHH, vs F0103275B05: S27P, I28V, S33R, N53P, S56D, N93R) VHH: EVQLVESGGGLVQPGGSLRLSCAASGPVFNINRMAWYRRAPGKQRELVASSTPGGDTNYADSVKGRFTISRDNAKRVYLQMNSLTPEDTAVYYCRALLQPSIYDISRTYWGQGTLVTVSS . State its measured EC50.
Found: 22
